target: Hexose transporter 1 (Plasmodium falciparum) (UniProt O97467); assay: ST_JUDE_LEISH: Cytotoxicity at 2uM final concentration against transgenic Leishmania Mexicana promastigotes LmPfHT that are glucose transport deficient and complemented with the Plasmodium falciparum hexose transporter. Activity is measured by DNA content using SYBR green in vitro; format: functional
reportedEndpoint: inhibition (%)
Provide the reading as a plain figure in %.

Completed entries (count: 5):
CC(Cc1ccc(CN2CCN(Cc3ccccc3)CC2)cc1)NCC(O)c1cccc(C(F)(F)F)c1 (stereo not given): 4.18
O=C(Nc1ccc(Cl)cc1)Nc1ccc(-c2ccc(-c3nc4ccccc4[nH]3)cc2)cc1: 3.97
COc1ccc(N2CCc3c(-c4cccc5cnccc45)cc(C)nc32)c(C)c1: 0.13
COc1ccc(Nc2nc(N3CCCC3)c3ccccc3n2)cc1: 19.6
COCCN1CCN(Cc2ccc(-c3ccc(-c4nc5cccc(C)c5[nH]4)s3)cc2)CC1: 6.85

Hello, please tell me recorded inhibition for this one: `CCC(CC)NCc1c(O)ccc2c(CNC(CC)CC)c(O)ccc12`
-0.71
